# System: Arachidonate-Induced Ear Edema
# experiment-notes: Arachidonic Acid-Induced Ear Edema Assay
# Type: in vivo
# condition-description: topical, mouse ear
Below is a list of entries, each paired with its recorded Inhibition of Arachidonate-Induced Ear Edema, ED50 value.
Provide only the numeric value, understood in µg.

Here is how some compounds turned out for Inhibition of Arachidonate-Induced Ear Edema, ED50.
compound="CCCCCCCCCCN1CCN(O)C1=O [Example 25, 1-Decyl-3-hydroxyimidazolidin-2-one]" endpoint_unit=µg value=90
compound="CCCCCCCCCCN(O)C(=O)NC [Example 2, N-Methyl-N'-decyl-N'-hydroxyurea]" endpoint_unit=µg value=29

State, in one line, measured Inhibition of Arachidonate-Induced Ear Edema, ED50 of CCCCCCCN(O)C(=O)N(C)C [Example 9, N,N-Dimethyl-N'-heptyl-N'-hydroxyurea]
55

State, in one line, measured Inhibition of Arachidonate-Induced Ear Edema, ED50 of CCCCCCCCCCN(C)C(=O)N(C)O [Example 17, N-Decyl-N,N'-dimethyl-N'-hydroxyurea]
24

State, in one line, measured Inhibition of Arachidonate-Induced Ear Edema, ED50 of CCCCCCCCCCN(O)C(=O)N(C)C [Example 11, N,N-Dimethyl-N'-decyl-N'-hydroxyurea]
43

State, in one line, measured Inhibition of Arachidonate-Induced Ear Edema, ED50 of `CCCCCCCCCCNC(=O)N(O)CCCC(=O)OCC`
183

State, in one line, measured Inhibition of Arachidonate-Induced Ear Edema, ED50 of CCCCCCCCCCNC(=O)N(C)O [Example 16, N-Decyl-N'-methyl-N'-hydroxyurea]
28

State, in one line, measured Inhibition of Arachidonate-Induced Ear Edema, ED50 of CCCCCCCCCCCCCN(O)C(=O)N(C)C [Example 14, N,N-Dimethyl-N'-tridecyl-N'-hydroxyurea]
156

State, in one line, measured Inhibition of Arachidonate-Induced Ear Edema, ED50 of `CN(O)C(=O)NCCCCCCCOCc1ccccc1`
31

State, in one line, measured Inhibition of Arachidonate-Induced Ear Edema, ED50 of CCCCCCCCCCCN(O)C(=O)N(C)C [Example 12, N,N-Dimethyl-N'-undecyl-N'-hydroxyurea]
65

State, in one line, measured Inhibition of Arachidonate-Induced Ear Edema, ED50 of CCCCCCCCN(O)C(=O)N(C)C [Example 7, N,N-Dimethyl-N'-octyl-N'-hydroxyurea]
49

State, in one line, measured Inhibition of Arachidonate-Induced Ear Edema, ED50 of CCCCCCCCCCC1CN(O)C(=O)N1C (stereo not drawn)
134

---

# System: Arachidonate-Induced Bronchospasm (lipoxygenase)
# experiment-notes: Pulmonary Mechanics Assay: arachidonate-induced bronchospasm with indomethacin (SRS-A response, indicative of lipoxygenase inhibition)
# Assay type: in vivo, male Hartley guinea pigs
# condition-description: Cavia porcellus, ID dosing, 50 mg/kg, guinea pig, read-out: Inhibition of Arachidonate-Induced Bronchospasm (ID Dosing), % Inh. with Indomethacin
property: inhibition in vivo at 50 mg/kg (%)
Provide only the numeric value, understood in %.

State, in one line, measured inhibition in vivo at 50 mg/kg of C=CCOc1ccc(CCNC(=O)N(C)O)cc1OC [Example 55]
56

State, in one line, measured inhibition in vivo at 50 mg/kg of CCCCCCCCCCCCCN(O)C(=O)N(C)C [Example 14, N,N-Dimethyl-N'-tridecyl-N'-hydroxyurea]
49

State, in one line, measured inhibition in vivo at 50 mg/kg of COc1cccc(CCNC(=O)N(C)O)c1OC [Example 44]
58

State, in one line, measured inhibition in vivo at 50 mg/kg of CN(O)C(=O)NCCCCCCOc1ccc(-c2ccccc2)cc1 [Example 37]
-11

State, in one line, measured inhibition in vivo at 50 mg/kg of CN(O)C(=O)NCCCOc1ccc(-c2ccccc2)cc1 [Example 34]
34

State, in one line, measured inhibition in vivo at 50 mg/kg of COc1ccc(CCCN(CCCc2ccc(OC)c(OC)c2)C(=O)N(C)O)cc1OC [Example 63]
21

State, in one line, measured inhibition in vivo at 50 mg/kg of COc1ccc(CCNC(=O)N(O)C(C)C)cc1OC [Example 41]
30

State, in one line, measured inhibition in vivo at 50 mg/kg of CCCCCCCCCCCN(O)C(=O)N(C)C [Example 12, N,N-Dimethyl-N'-undecyl-N'-hydroxyurea]
40

State, in one line, measured inhibition in vivo at 50 mg/kg of CN(O)C(=O)NCCCCCOc1ccc(-c2ccccc2)cc1 [Example 36]
31

State, in one line, measured inhibition in vivo at 50 mg/kg of CCCCCCCCCCCCCCN(O)C(=O)N(C)C [Example 15]
46

State, in one line, measured inhibition in vivo at 50 mg/kg of CCCCCCCCCCNC(=O)N(O)CCCC(=O)OCC [Example 19]
0

State, in one line, measured inhibition in vivo at 50 mg/kg of CN(O)C(=O)NCCCCOc1ccc(-c2ccccc2)cc1 [Example 35]
33

State, in one line, measured inhibition in vivo at 50 mg/kg of CCCCCCCCCCN(O)C(=O)N(C)C [Example 11, N,N-Dimethyl-N'-decyl-N'-hydroxyurea]
-46

State, in one line, measured inhibition in vivo at 50 mg/kg of CN(O)C(=O)NCCOc1ccc(-c2ccccc2)cc1 [Example 33]
28

State, in one line, measured inhibition in vivo at 50 mg/kg of COc1ccc(C2C3C=CC(C3)C2NC(=O)N(C)O)cc1OC (stereo not drawn) [Example 58]
68

---

# target-or-system: 5-lipoxygenase (Rattus norvegicus)
# Construct: The cell-free homogenate was prepared by sonication of the cells followed by centrifugation at 40,000 xg; endogenous in cells; host or cells: RBL-1 (rat basophilic leukemia) cells, 40,000 xg supernatant of the sonicate
# experiment-notes: Inhibition of 5-lipoxygenase in cell-free homogenate of rat basophilic leukemia (RBL-1) cells
# Assay type: biochemical
# condition-description: 3 μM; RBL-1 cell-free homogenate; read-out: Inhibition of 5-Lipoxygenase, % Inh. @ 3 μM
# Description: The inhibition of 5-lipoxygenase was tested in a cell-free homogenate by the procedure of B. Jakschik et al., Biochem.Biophys.Res.Comm. 95, 103 (1980). […] The CaCl2 dependent production of lipoxygenase products from ^14 C-arachidonic acid in the 40,000 xg supernatant was monitored in the presence of buffer (or other vehicle) or drug. […] Radioactive areas corresponding to the authentic lipoxygenase products were quantitated by liquid scintillation counting. […]
Tag: Criterion met if measured inhibition at 3 µM is not below 50%, Criterion not met if it is.

compound="COc1ccc(CC(C)NC(=O)N(C)O)cc1OC (stereo not shown) [Example 54]" target_or_system="5-lipoxygenase (Rattus norvegicus)" class_assignment="Criterion not met"
compound="C=CCOc1ccc(CCNC(=O)N(C)O)cc1OC [Example 55]" target_or_system="5-lipoxygenase (Rattus norvegicus)" class_assignment="Criterion not met"

Form field: inhibition at 3 µM at least 50%? Entry: COc1cc2c(cc1OC)CN(C(=O)N(C)O)CC2 [Example 51]
Criterion not met

Form field: inhibition at 3 µM at least 50%? Entry: CCCCC/C=C\C/C=C\C/C=C\C/C=C\CCCNC(=O)N(C)O [Example 22]
Criterion met

Form field: inhibition at 3 µM at least 50%? Entry: CCCCCCCCCCCCCCN(O)C(=O)N(C)C [Example 15]
Criterion met

Form field: inhibition at 3 µM at least 50%? Entry: CN(O)C(=O)NCCCOc1ccc(-c2ccccc2)cc1 [Example 34]
Criterion met

Form field: inhibition at 3 µM at least 50%? Entry: COc1ccc(CCN(CC(C)C)C(=O)N(C)O)cc1OC [Example 64]
Criterion not met

Form field: inhibition at 3 µM at least 50%? Entry: COc1ccc(C2C3C=CC(C3)C2NC(=O)N(C)O)cc1OC (stereo not shown) [Example 58]
Criterion not met

Form field: inhibition at 3 µM at least 50%? Entry: CCCCCCN(O)C(=O)N(C)C [Example 10, N,N-Dimethyl-N'-hexyl-N'-hydroxyurea]
Criterion met

---

# target-or-system: 5-lipoxygenase (Rattus norvegicus, UniProt P12527)
# Construct: The cell-free homogenate was prepared by sonication of the cells followed by centrifugation at 40,000 xg; endogenous in cells; host or cells: RBL-1 (rat basophilic leukemia) cells, 40,000 xg supernatant of the sonicate
# Sequence (P12527 whole entry): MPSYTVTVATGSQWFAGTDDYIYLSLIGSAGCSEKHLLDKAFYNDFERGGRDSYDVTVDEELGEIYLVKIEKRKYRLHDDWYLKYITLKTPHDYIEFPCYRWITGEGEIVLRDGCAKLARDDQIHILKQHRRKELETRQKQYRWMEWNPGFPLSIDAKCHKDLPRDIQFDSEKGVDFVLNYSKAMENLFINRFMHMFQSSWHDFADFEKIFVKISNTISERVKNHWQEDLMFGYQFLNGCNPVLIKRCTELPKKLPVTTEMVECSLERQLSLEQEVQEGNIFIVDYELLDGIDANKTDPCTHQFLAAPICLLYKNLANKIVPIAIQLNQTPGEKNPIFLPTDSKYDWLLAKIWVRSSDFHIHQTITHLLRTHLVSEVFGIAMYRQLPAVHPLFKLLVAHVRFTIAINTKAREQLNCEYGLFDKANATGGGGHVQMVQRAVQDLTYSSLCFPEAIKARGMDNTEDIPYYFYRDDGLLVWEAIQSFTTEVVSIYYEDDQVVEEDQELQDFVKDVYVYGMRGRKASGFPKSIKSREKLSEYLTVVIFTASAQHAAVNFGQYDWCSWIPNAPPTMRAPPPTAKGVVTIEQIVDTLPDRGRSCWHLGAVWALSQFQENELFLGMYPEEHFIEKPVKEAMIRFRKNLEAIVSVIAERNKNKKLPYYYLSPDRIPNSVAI
# experiment-notes: Inhibition of 5-lipoxygenase in cell-free homogenate of rat basophilic leukemia (RBL-1) cells
# Assay type: biochemical
# condition-description: 3 μM; RBL-1 cell-free homogenate; read-out: Inhibition of 5-Lipoxygenase, % Inh. @ 3 μM
Tag: fulfilled if measured inhibition at 3 µM is not below 30%, not fulfilled if it is.

compound=COc1ccc(CNC(=O)N(C)O)cc1OC class_assignment="not fulfilled"
compound=CN(O)C(=O)NCCc1ccc2c(c1)OCO2 class_assignment=fulfilled
compound=CN(O)C(=O)NCCc1ccc2c(c1)OCCO2 class_assignment=fulfilled
compound=COc1cccc(CCNC(=O)N(C)O)c1OC class_assignment=fulfilled

Form field: inhibition at 3 µM at least 30%? Entry: COc1ccc(C2C3CCC(C3)C2NC(=O)N(C)O)cc1OC (stereo not drawn)
fulfilled
